Measured IC50, listed per entry.
TARGET OR SYSTEM: HLA-B*5301 (human)
PROTOCOL SUMMARY: competition vs 125I-labelled probe peptide, purified HLA, gel filtration
MEASURED ATTRIBUTE: IC50 (nM)

BINDER	VALUE OBSERVED
FPREGPLPAI (10-mer analog of the HER2/neu peptide starting at position 1151) [Her2/neu.1151.F1I10]	620
FPSETDGYV [Her2/neu.1120.F1]	517
FPSPREGPLPI (11-mer analog of the HER2/neu peptide starting at position 1149) [Her2/neu.1149.F1I11]	5170
FPREGPLPI (9-mer analog of the HER2/neu peptide starting at position 1151) [Her2/neu.1151.F1I9]	2820
